List of MIC tested on Bacillus subtilis.

As a guide, the following entries are already answered.
MOLECULE	EXPERIMENTAL_TARGET	MIC
CC(C)C[C@H](NC(=O)[C@H](C)NC(=O)CNC(=O)[C@H](CC(C)C)NC(=O)[C@@H](N)Cc1ccccc1)C(=O)N[C@@H](Cc1ccccc1)C(=O)N[C@@H](CCCCN)C(=O)N[C@H](C(=O)N[C@@H](C)C(=O)N[C@@H](CO)C(=O)N[C@@H](Cc1c[nH]c2ccccc12)C(=O)O)C(C)C [FLGALFKVASW]	Bacillus subtilis	≥ 161 µM
CC(C)C[C@H](NC(=O)[C@H](CCCCN)NC(=O)[C@H](CCCN=C(N)N)NC(=O)[C@H](Cc1ccccc1)NC(=O)[C@H](Cc1ccccc1)NC(=O)[C@H](CCCCN)NC(=O)[C@H](CCCCN)NC(=O)[C@H](Cc1ccccc1)NC(=O)[C@H](CCCN=C(N)N)NC(=O)[C@H](CCCCN)NC(=O)[C@@H](NC(=O)[C@H](CC(C)C)NC(=O)[C@@H](N)CCCCN)C(C)C)C(=O)N[C@@H](CCCCN)C(=O)N[C@@H](CCCCN)C(=O)N[C@@H](CO)C(N)=O [KLVKRFKKFFRKLKKS]	Bacillus subtilis	≥ 61.5 µM

Let us examine a further case.
Prompt: Supply measured MIC of CC[C@H](C)[C@H](N)C(=O)N[C@@H](Cc1c[nH]c2ccccc12)C(=O)N[C@@H](CC(N)=O)C(=O)N[C@@H](CCCCN)C(=O)N[C@H](C(=O)N[C@@H](C)C(=O)N[C@@H](CCCCN)C(=O)N[C@@H](CO)C(=O)N[C@H](C(=O)NCC(=O)N[C@@H](CCCCN)C(=O)N[C@H](C(=O)N[C@@H](CC(C)C)C(=O)N[C@@H](CCC(=O)O)C(=O)N[C@@H](CCCCN)C(=O)N[C@@H](C)C(=O)N[C@@H](CC(C)C)C(N)=O)C(C)C)[C@@H](C)CC)[C@@H](C)CC [IWNKIAKSIGKVLEKAL] in your reply.
Completion: ≥ 35 µM

Provenance of the data: DBAASP
